B1: Caulobacter ParB omega fusion; a variant is named by its letters at X, in order, B8GW30 (parent)
chain: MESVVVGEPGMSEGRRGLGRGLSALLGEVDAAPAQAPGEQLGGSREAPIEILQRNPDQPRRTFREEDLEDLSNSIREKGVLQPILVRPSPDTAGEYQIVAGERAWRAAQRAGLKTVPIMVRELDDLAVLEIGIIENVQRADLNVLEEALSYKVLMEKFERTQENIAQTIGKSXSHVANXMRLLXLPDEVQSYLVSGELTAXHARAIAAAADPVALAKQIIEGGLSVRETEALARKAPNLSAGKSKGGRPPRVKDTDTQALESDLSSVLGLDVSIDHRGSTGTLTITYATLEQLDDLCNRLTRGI

- Variants of: B1
- measurementProtocol: one-hybrid fitness for binding NBS DNA (the Noc-binding site; scaled: cognate 1, non-cognate 0); higher = stronger binding
- assayContext: with NBS DNA site
In all, about 81,000 sequences were measured (“one-hybrid fitness for binding NBS DNA”: median about -0.1, highest 2% from about 0.36 on). This is one part of a sample in which the highest values are shown more often than they occur.
readoutLabel: one-hybrid fitness for binding NBS DNA

Please indicate one-hybrid fitness for binding NBS DNA recorded for `IPDS`
≤ 0.2

Indicate its recorded one-hybrid fitness for binding NBS DNA; the variant in question is `RYAP`
≤ 0.2

Provide one value: measured one-hybrid fitness for binding NBS DNA of `IDSK`
≤ 0.2

Fill in reported one-hybrid fitness for binding NBS DNA for this entry: `FTRD`
≤ 0.2

Answer with the recorded one-hybrid fitness for binding NBS DNA of `NSRQ` only.
≤ 0.2

Check the records and state one-hybrid fitness for binding NBS DNA for `RHMN`
≤ 0.2

Output one-hybrid fitness for binding NBS DNA of `HMAT`
≤ 0.2

Specify measured one-hybrid fitness for binding NBS DNA for `QRLH` .
0.453

Return reported one-hybrid fitness for binding NBS DNA. Input variant: `QCLH`
≤ 0.2

Look up and state reported one-hybrid fitness for binding NBS DNA for `AVEL`
≤ 0.2

Give the value of one-hybrid fitness for binding NBS DNA reported for the following: `ILDG`
≤ 0.2

For the variant `GQKR` , report one-hybrid fitness for binding NBS DNA.
0.201

Give one-hybrid fitness for binding NBS DNA for `RTMP`
≤ 0.2

Annotate the variant `IHHC` with its measured one-hybrid fitness for binding NBS DNA.
≤ 0.2

Determine from records and report one-hybrid fitness for binding NBS DNA for `QRLS`
0.603

Specify reported one-hybrid fitness for binding NBS DNA for the variant shown: `RYCR`
0.377

Give one-hybrid fitness for binding NBS DNA for `VFVQ`
≤ 0.2

Supply measured one-hybrid fitness for binding NBS DNA of `SVIN` in your reply.
≤ 0.2

Give a short answer stating reported one-hybrid fitness for binding NBS DNA for `QRLP` .
≤ 0.2

State its one-hybrid fitness for binding NBS DNA for this variant: `QAAR`
0.511

Retrieve one-hybrid fitness for binding NBS DNA measured for `SIGR` and print it.
≤ 0.2

For the variant `RPMR` , give its reported one-hybrid fitness for binding NBS DNA.
≤ 0.2
